Recorded Kd by entry
# experimentalTarget: DCAF1 WD40 domain (residues 1077-1390) (Homo sapiens, UniProt Q9Y4B6)
# Construct: DCAF1 WD40 domain (residues 1077-1390)
# Sequence (Q9Y4B6 1077-1390): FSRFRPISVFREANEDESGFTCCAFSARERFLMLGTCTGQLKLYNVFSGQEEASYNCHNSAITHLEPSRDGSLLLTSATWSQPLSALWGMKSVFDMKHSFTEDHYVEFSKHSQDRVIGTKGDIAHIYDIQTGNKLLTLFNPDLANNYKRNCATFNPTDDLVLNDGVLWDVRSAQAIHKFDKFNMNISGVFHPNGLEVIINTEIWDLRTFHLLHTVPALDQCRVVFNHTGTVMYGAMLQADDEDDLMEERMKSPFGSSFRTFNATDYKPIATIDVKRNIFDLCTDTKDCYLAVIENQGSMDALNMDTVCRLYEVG
# assayRemarks: DCAF1 binding assay by SPR (Biacore 8K+), DCAF1-3 KD
# appliedConditions: 25 °C, read-out: DCAF1-3 SPR (KD)

- COCCC(=O)c1c(-c2c(F)ccc(F)c2C)c(C(=O)N[C@@H](CC(N)=O)c2cccc(Cl)c2)cn1C [I-973]: < 10 µM

Query string: Consider the compound shown here: NC(=O)C[C@H](NC(=O)c1cn[nH]c1C1CCOCC1)c1ccccc1 [I-501] What is its recorded Kd?
Result string: 10 to 100 µM

Query string: Consider the compound shown here: Fc1cccc(N2CCC[C@@H](N(c3ccccc3)c3cc(N4CCOCC4)ccn3)C2)c1 [I-273] What is its recorded Kd?
Result string: > 200 µM

Query string: Consider the compound shown here: Cc1cccc([C@H](CC(N)=O)NC(=O)c2cn[nH]c2-c2ccccc2F)c1 [I-108] What is its recorded Kd?
Result string: < 10 µM
